Reference source for all entries: PubChem BioAssay AID624129

target: C-X-C chemokine receptor type 6 (Homo sapiens); assay: potency against CXCR6 with APJ panel – cell-based, beta-arrestin, DiscoveRx, uHTS hits, dose response (AID 624129); conditions: CXCR6 beta-arrestin (DiscoveRx) antagonist cell assay, CXCR6, dose range 1, mean IC50 across replicates
# class assignment by measured IC50: one = under 9 µM, two = from 9 µM up to 20 µM, three = 20 µM and over

Prompt line: # bin label for CNc1ccc2oc(C[C@H]3O[C@@]4(CC[C@H]3C)O[C@H]([C@H](C)C(=O)c3ccc[nH]3)[C@H](C)C[C@H]4C)nc2c1C(=O)O
Response line: one

Prompt line: # bin label for CCN(CC)CC(C)(C)C(=O)/C=C/c1ccc(/C=C/C(=O)C(C)(C)CN(CC)CC)cc1
Response line: one

Prompt line: # bin label for O=C(NCc1cccnc1)/C(=C\c1ccc(-c2cccc(Cl)c2)o1)S(=O)(=O)c1ccccc1
Response line: two

Prompt line: # bin label for O=C1C=CC(=O)N1c1ccc(N2CCCCC2)cc1
Response line: two

Prompt line: # bin label for Cc1cccc(Cc2cnc(N3C(=N)SC(C)C3=O)s2)c1 (stereo unspecified)
Response line: one

Prompt line: # bin label for Cc1cc(O)ccc1NC(=S)NC(=O)c1cncc(Br)c1
Response line: two

Prompt line: # bin label for O=C(OCn1ncc(Cl)c(Cl)c1=O)c1cccc(C(F)(F)F)c1
Response line: three

Prompt line: # bin label for CCCC(=O)OCCNc1cc(SCCC(=O)OC)c2nonc2c1[N+](=O)[O-]
Response line: three

Prompt line: # bin label for COc1ccc(OC)c(/C=C/c2ccc3cccc(O)c3n2)c1
Response line: one

Prompt line: # bin label for O=C1c2ccccc2C(=O)N1OS(=O)(=O)c1ccc(F)cc1
Response line: three

Prompt line: # bin label for CC(=O)/C(=N\Nc1ccc(Cl)cc1Cl)Sc1cccc2cccnc12
Response line: one

Prompt line: # bin label for CC(=O)OCCNc1cc(SCc2ccco2)c2nonc2c1[N+](=O)[O-]
Response line: two

Prompt line: # bin label for O=C1C=CC(=O)N1c1ccc(-c2nc3ccccc3o2)cc1
Response line: one

Prompt line: # bin label for O=C1C=CC(=O)N1Cc1ccccc1
Response line: one

Prompt line: # bin label for COc1cc(/C=C/c2ccc3cccc(O)c3n2)ccc1O
Response line: two

Prompt line: # bin label for O=C1c2cccc3c([N+](=O)[O-])ccc(c23)C(=O)N1c1ccccn1
Response line: three

Prompt line: # bin label for O=C(Nc1nccs1)c1sc2cc(Cl)ccc2c1Cl
Response line: two

Prompt line: # bin label for CCO[C@@H]1OC(C(=O)N2CCN(Cc3ccccc3)CC2)=C[C@H](c2ccc(Br)cc2)[C@H]1CCCO
Response line: two

Prompt line: # bin label for Fc1ccc(Sc2nc(-c3ccccc3)nnc2C(F)(F)F)cc1
Response line: two

Prompt line: # bin label for N#Cc1c(C#N)c(SSc2c(C#N)c(C#N)c(N)n2-c2ccccc2)n(-c2ccccc2)c1N
Response line: two

Prompt line: # bin label for CCCOc1cccc(-c2cc(C(=O)N/N=C/c3ccccn3)c3ccccc3n2)c1
Response line: one

###

biological target: Apelin receptor (Homo sapiens) (UniProt P35414); assay: potency against CXCR6 with APJ panel – cell-based, beta-arrestin, DiscoveRx, uHTS hits, dose response (AID 624129); conditions: CXCR6 beta-arrestin (DiscoveRx) antagonist cell assay, APJ, run 3, dose range 1
Exercise: state measured pIC50 for each of the compounds provided.
# reply with the number alone; pIC50 is -log10 of concentration in mol/L

Prompt line: Please supply the value of reported pIC50 for the item C=C1CC(COc2ccc3c(C)c(Cl)c(=O)oc3c2)(c2ccccc2)OC1=O (stereo not given)
Response line: 4.79

Prompt line: Please supply the value of reported pIC50 for the item O=C1C(=C(c2ccccc2)N2CCOCC2)Cc2ccccc21
Response line: 4.90

Prompt line: Please supply the value of reported pIC50 for the item Oc1cccc2ccc(/C=C/c3cccs3)nc12
Response line: 5.31

Prompt line: Please supply the value of reported pIC50 for the item C/C(=N\NC(=O)C(C)Oc1ccc([N+](=O)[O-])cc1)c1ccccn1 (stereo not given)
Response line: 4.76

Prompt line: Please supply the value of reported pIC50 for the item C=C1CC(COc2cc(=O)oc3ccccc23)(c2ccccc2)OC1=O (stereo not given)
Response line: 4.95

Prompt line: Please supply the value of reported pIC50 for the item O=C1N[C@H](Cc2ccccc2)COC(=O)[C@H](Cc2ccc(F)cc2)CC/C=C/C[C@H]1CC(=O)N(CCO)Cc1ccccc1
Response line: 5.33

Prompt line: Please supply the value of reported pIC50 for the item CCC(=O)OCCNc1cc(Sc2nc3ccccc3[nH]2)c2nonc2c1[N+](=O)[O-]
Response line: 5.14

###

target: UniProtKB O00574; assay: potency against CXCR6 with APJ panel – cell-based, beta-arrestin, DiscoveRx, uHTS hits, dose response (AID 624129); conditions: CXCR6 beta-arrestin (DiscoveRx) antagonist cell assay, CXCR6, run 2, dose range 2
Sequence (O00574 whole entry, looked up): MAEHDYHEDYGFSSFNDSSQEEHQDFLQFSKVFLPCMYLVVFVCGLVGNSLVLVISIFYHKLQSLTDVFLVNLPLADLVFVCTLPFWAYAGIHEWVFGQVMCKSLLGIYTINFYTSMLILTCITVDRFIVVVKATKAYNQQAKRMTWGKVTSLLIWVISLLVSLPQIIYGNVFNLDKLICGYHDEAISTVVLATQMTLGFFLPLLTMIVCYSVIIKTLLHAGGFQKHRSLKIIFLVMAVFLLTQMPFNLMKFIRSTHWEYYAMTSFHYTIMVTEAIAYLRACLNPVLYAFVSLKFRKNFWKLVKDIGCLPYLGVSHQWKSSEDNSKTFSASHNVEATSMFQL
Exercise: state measured IC50 for each of the compounds provided.
Please respond with the number in µM and leave the unit unwritten.

Prompt line: Please supply the value of reported IC50 for the item C=C1CC(COc2cc(=O)oc3ccccc23)(c2ccccc2)OC1=O (stereo unspecified)
Response line: 5.67

Prompt line: Please supply the value of reported IC50 for the item O=C(NNC(=O)C12CC3CC(CC(C3)C1)C2)c1ccccn1
Response line: 10.9

Prompt line: Please supply the value of reported IC50 for the item CCC1CCCCN1S(=O)(=O)c1ccc(NC(=O)c2nc(S(C)(=O)=O)ncc2Cl)cc1 (stereo unspecified)
Response line: 10.9

Prompt line: Please supply the value of reported IC50 for the item CCOC(=O)c1ccc(NC(=O)c2nc(S(=O)(=O)Cc3ccccc3)ncc2Cl)cc1
Response line: 13.5

Prompt line: Please supply the value of reported IC50 for the item COc1cccc(C(=O)NC(=S)N2CCN(c3ccc(C(F)(F)F)cc3[N+](=O)[O-])CC2)c1
Response line: 14

Prompt line: Please supply the value of reported IC50 for the item Cn1c(=O)[nH]c(=O)c2c1nc(Sc1nc3ccccc3s1)n2Cc1ccccc1
Response line: 25.6

Prompt line: Please supply the value of reported IC50 for the item O=C(NCc1ccc2c(c1)OCO2)c1nc(S(=O)(=O)Cc2ccccc2F)ncc1Cl
Response line: 17

Prompt line: Please supply the value of reported IC50 for the item CC1(C)CC[C@]2(C(=O)n3ccnc3)CC[C@]3(C)[C@H](C(=O)C=C4[C@@]5(C)C=C(C#N)C(=O)C(C)(C)[C@@H]5CC[C@]43C)[C@@H]2C1
Response line: 18.4

Prompt line: Please supply the value of reported IC50 for the item CCCCOc1ccc(C(=O)NNC(=S)NC(=O)CC)cc1
Response line: 10

Prompt line: Please supply the value of reported IC50 for the item COc1cc(N2C(=O)C=CC2=O)ccc1N1C(=O)C=CC1=O
Response line: 18.9

Prompt line: Please supply the value of reported IC50 for the item O=C(N/N=C(\c1ccccc1)c1cccnc1)c1cccc(F)c1
Response line: 3.34

Prompt line: Please supply the value of reported IC50 for the item N=C1SCC(=O)N1c1ncc(Cc2ccccc2Cl)s1
Response line: 13.5

Prompt line: Please supply the value of reported IC50 for the item Cc1cc(O)ccc1NC(=S)NC(=O)c1cncc(Br)c1
Response line: 15.4

Prompt line: Please supply the value of reported IC50 for the item CC(Oc1ccccc1)C(=O)Nc1nc(-c2ccccn2)cs1 (stereo unspecified)
Response line: 17.3

Prompt line: Please supply the value of reported IC50 for the item Oc1cccc2ccc(/C=C/c3c(F)cccc3Cl)nc12
Response line: 4.85

Prompt line: Please supply the value of reported IC50 for the item CNC(=O)c1nnsc1S(=O)c1ccc(Cl)cc1 (stereo unspecified)
Response line: 12.7

Prompt line: Please supply the value of reported IC50 for the item FC(F)(F)c1cnc(NNC(=S)Nc2ccccc2)c(Cl)c1
Response line: 17.8

Prompt line: Please supply the value of reported IC50 for the item O=C(NNc1ccc([N+](=O)[O-])cc1[N+](=O)[O-])c1ccco1
Response line: 29.9

Prompt line: Please supply the value of reported IC50 for the item COc1ccc(C(=O)N/N=C(\C)c2ccccn2)cc1OC
Response line: 1.14

Prompt line: Please supply the value of reported IC50 for the item CN(c1ccccc1)S(=O)(=O)c1ccc(NC(=O)c2nc(S(C)(=O)=O)ncc2Cl)cc1
Response line: 9.16

Prompt line: Please supply the value of reported IC50 for the item O=C1C=CC(=O)N1c1ccc(N2CCCCC2)cc1
Response line: 19.1

Prompt line: Please supply the value of reported IC50 for the item O=C(Nc1nc2c(F)cc(F)cc2s1)c1ccccn1
Response line: 1

Prompt line: Please supply the value of reported IC50 for the item COC(=O)c1ccc2c(c1)C(C)(C)C(/C=C/c1ccc(OC)c(OC)c1OC)=[N+]2C
Response line: 7.23

Prompt line: Please supply the value of reported IC50 for the item CC[N+]1(C)CCC(O)(/C=C/c2ccccc2)C(C(=O)/C=C/c2ccccc2)C1 (stereo unspecified)
Response line: 18.7

Prompt line: Please supply the value of reported IC50 for the item O=C1c2cccc3c([N+](=O)[O-])ccc(c23)C(=O)N1Cc1cccnc1
Response line: 30.5

Prompt line: Please supply the value of reported IC50 for the item O=C(COc1ccc(Br)cc1Cl)NC(=S)N1CCc2ccccc21
Response line: 19.7

Prompt line: Please supply the value of reported IC50 for the item C=C1C(=O)O[C@@H]2C[C@@H](C)[C@@H]3C=CC(=O)[C@@]3(C)[C@@H](OC(=O)CC(=O)O[C@H]3[C@@H]4C(=C)C(=O)O[C@@H]4C[C@@H](C)[C@@H]4C=CC(=O)[C@]43C)[C@H]12
Response line: 3.28

Prompt line: Please supply the value of reported IC50 for the item O=C(Nc1ccccc1)c1ccc(Nc2c([N+](=O)[O-])cc([N+](=O)[O-])c3ccccc23)cc1
Response line: 23.6

Prompt line: Please supply the value of reported IC50 for the item COc1ccc(/C=C(/C(=O)c2cccs2)N2C=CC=CC2=C(C#N)C#N)cc1
Response line: 19.5

Prompt line: Please supply the value of reported IC50 for the item COC(=O)c1ccc(CCc2cc(O)c(Br)cc2O)cc1
Response line: 66.8

Prompt line: Please supply the value of reported IC50 for the item COc1cc(C(=O)NCC(c2ccco2)N2CCc3ccccc3C2)cc(OC)c1OC (stereo unspecified)
Response line: 27.8

Prompt line: Please supply the value of reported IC50 for the item COc1ccc2nc(-n3c(O)c(C4=c5ccccc5=NC4=O)[nH]c3=S)sc2c1
Response line: 34.3

Prompt line: Please supply the value of reported IC50 for the item O=C1C=CC(=O)N1CCCCCCCCCCN1C(=O)C=CC1=O
Response line: 18

Prompt line: Please supply the value of reported IC50 for the item Nc1cccc2c1C(=O)N(C(=O)/C=C/c1cccc(F)c1)C2=O
Response line: 37

Prompt line: Please supply the value of reported IC50 for the item Cc1ccc(CN2C(=O)C(Cc3ccccc3)Nc3ncnc(N4CCN(c5ccccc5)CC4)c32)cc1 (stereo unspecified)
Response line: 2.93

Prompt line: Please supply the value of reported IC50 for the item COc1ccc(NC(=S)NNc2ccc([N+](=O)[O-])cc2S(=O)(=O)Nc2ccc(C)cc2C)cc1
Response line: 35.1

Prompt line: Please supply the value of reported IC50 for the item C/C(=N\NC(=O)c1ccc(F)cc1)c1ccccn1
Response line: 0.779

Prompt line: Please supply the value of reported IC50 for the item C=C1C(=O)C23CCC4C(C)(C(=O)OC)CCCC4(C)C2CCC1(O)C3 (stereo unspecified)
Response line: 6.77

Prompt line: Please supply the value of reported IC50 for the item O=C1C=CC(=O)N1CCNc1ncc(C(F)(F)F)cc1Cl
Response line: 15.2

Prompt line: Please supply the value of reported IC50 for the item CCS(=O)(=O)c1ncc(Cl)c(C(=O)Nc2ccc(S(=O)(=O)N(C)c3ccccc3)cc2)n1
Response line: 6.76
